- Assay System: human orexin-1 receptor (Homo sapiens)
- Experimental Details: FLIPR intracellular calcium assay, orexin receptor antagonistic activity (OX1)
- Run Conditions: CHO cells expressing human orexin-1 receptor; 3 nM orexin-A; normalized to on-plate reference; *n = geometric mean from n values
Measure: IC50 (nM)

>>> measurement("COc1cccc(OC)c1C1SCC(=O)N1Cc1ccc(Oc2cc(C)ccn2)cc1 (stereo not shown) [Example 284]")
344

(a) COc1cccc(OC)c1C1SCC(=O)N1Cc1ccc(-c2ccccc2)cc1 (stereo not shown) [Example 203]
(b) COc1cccc(OC)c1C1SCC(=O)N1Cc1ccc(OC(F)(F)F)cc1 (stereo not shown) [Example 2]
(c) COc1cccc(OC)c1C1SC(C)(C)C(=O)N1Cc1ccc2ccccc2c1 (stereo not shown) [Example 176]
(d) CCOc1ccc(CN2C(=O)CSC2c2c(OC)cncc2OC)cc1 (stereo not shown) [Example 29]
Please give the order of these compounds when sorted by IC50, largest value leading. Please respond with the labels ordered as the question requires. a, d, b, c
(a: 1830 nM, d: 1050 nM, b: 144 nM, c: 20 nM)

(1) COc1cccc(Oc2ccc(CN3C(=O)CSC3c3c(OC)cccc3OC)cc2)n1 (stereo not shown) [Example 282]
(2) CCOc1ccccc1CN1C(=O)CSC1c1c(OC)cccc1OC (stereo not shown) [Example 101]
Exercise: compare 1 and 2 ; which one has the greater IC50? Select an item and report its label. 1

(P) COc1ccc(CN2C(=O)CSC2c2c(OC)cccc2OC)cc1 (stereo not shown) [Example 1]
(Q) CCOc1cccc(OC)c1C1SCC(=O)N1Cc1ccc(OC(F)(F)F)cc1 (stereo not shown) [Example 16]
Exercise: compare P and Q ; which one has the greater IC50? Select an item and report its label. Q

(I) COc1cccc(OC)c1C1SCC(=O)N1Cc1ccc(Oc2ccccn2)cc1 (stereo not shown) [Example 277]
(II) COc1cccc(OC)c1C1SCC(=O)N1Cc1ccc(Oc2cncnc2)cc1 (stereo not shown) [Example 276]
Pick one, I or II : lowest reported IC50. Select an item and report its label. I
(I: 411 nM, II: 1590 nM)

====

- Assay System: UniProtKB O43614
- Experimental Details: FLIPR intracellular calcium assay, orexin receptor antagonistic activity (OX2)
- Run Conditions: CHO cells expressing human orexin-2 receptor; 3 nM orexin-A; normalized to on-plate reference; *n = geometric mean from n values
Measure: IC50 (nM)

>>> measurement("COc1cccc(OC)c1C1SC(C)(C)C(=O)N1Cc1ccc2ccccc2c1 (centres unmarked)")
295
>>> measurement("COc1cncc(OC)c1C1SCC(=O)N1Cc1ccc(OC(F)(F)F)cc1 (centres unmarked)")
16
>>> measurement("COc1ccc2cc(CN3C(=O)CSC3c3c(OC)cccc3OC)ccc2c1 (centres unmarked)")
6

(I) COc1cccc(OC)c1C1SCC(=O)N1Cc1ccc(Oc2ncccc2C)cc1 (centres unmarked)
(II) COc1cccc(OC)c1C1SCC(=O)N1Cc1ccc(Oc2ccc(C)cn2)cc1 (centres unmarked)
Pick one, I or II : lowest reported IC50. Select an item and report its label. II
(II: 61 nM, I: 135 nM)

(I) CCOc1ccc(CN2C(=O)CSC2c2c(OC)ccc3c2OCO3)cc1 (centres unmarked)
(II) COc1cccc(OC)c1C1SCC(=O)N1Cc1ccc(Oc2ccc(C)nn2)cc1 (centres unmarked)
Pick one, I or II : lowest reported IC50. Select an item and report its label. I
(I: 46 nM, II: 121 nM)

====

- Assay System: human orexin-1 receptor (Homo sapiens, UniProt O43613)
- Construct: expressed in transfected cells; host or cells: CHO (Chinese hamster ovary) cells, kept under G418
- Sequence (O43613 1-425): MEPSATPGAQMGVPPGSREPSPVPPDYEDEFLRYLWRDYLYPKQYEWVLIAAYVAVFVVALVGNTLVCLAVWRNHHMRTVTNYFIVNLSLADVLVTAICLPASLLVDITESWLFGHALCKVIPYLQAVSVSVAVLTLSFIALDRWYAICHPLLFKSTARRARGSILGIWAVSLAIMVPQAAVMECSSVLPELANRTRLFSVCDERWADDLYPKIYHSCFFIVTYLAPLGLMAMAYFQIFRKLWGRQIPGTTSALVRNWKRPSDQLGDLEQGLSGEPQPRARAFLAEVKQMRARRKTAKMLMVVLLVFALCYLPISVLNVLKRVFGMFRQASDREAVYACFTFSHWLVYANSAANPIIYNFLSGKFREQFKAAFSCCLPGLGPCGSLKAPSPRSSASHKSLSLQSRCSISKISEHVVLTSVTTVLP
- Experimental Details: FLIPR intracellular calcium assay, orexin receptor antagonistic activity (OX1)
- Assay type: cell-based
- Run Conditions: CHO cells expressing human orexin-1 receptor; 3 nM orexin-A; normalized to on-plate reference; *n = geometric mean from n values
pIC50: −log10 of the molar value.
Measure: pIC50

# annotated cases, reported pIC50 shown
>>> measurement("CCOc1ccccc1C1SCC(=O)N1Cc1cccc(OC(F)(F)F)c1 (centres unmarked)")
5.64
>>> measurement("COc1cccc(OC)c1C1SCC(=O)N1Cc1ccc2ccccc2n1 (centres unmarked)")
6.81
>>> measurement("COc1cc(C)cc(OC)c1C1SC(C)C(=O)N1Cc1ccc(OC(F)(F)F)cc1 (centres unmarked)")
6.77

(1) CCOc1ccccc1C1SCC(=O)N1Cc1ccc2c(c1)OCCO2 (centres unmarked)
(2) COc1cc(F)cc(OC)c1C1SCC(=O)N1Cc1ccc(OC(F)(F)F)cc1 (centres unmarked)
Exercise: compare 1 and 2 ; which one has the greater pIC50? Select an item and report its label. 2

====

- Assay System: human orexin-2 receptor (Homo sapiens)
- Sequence (O43614 whole entry): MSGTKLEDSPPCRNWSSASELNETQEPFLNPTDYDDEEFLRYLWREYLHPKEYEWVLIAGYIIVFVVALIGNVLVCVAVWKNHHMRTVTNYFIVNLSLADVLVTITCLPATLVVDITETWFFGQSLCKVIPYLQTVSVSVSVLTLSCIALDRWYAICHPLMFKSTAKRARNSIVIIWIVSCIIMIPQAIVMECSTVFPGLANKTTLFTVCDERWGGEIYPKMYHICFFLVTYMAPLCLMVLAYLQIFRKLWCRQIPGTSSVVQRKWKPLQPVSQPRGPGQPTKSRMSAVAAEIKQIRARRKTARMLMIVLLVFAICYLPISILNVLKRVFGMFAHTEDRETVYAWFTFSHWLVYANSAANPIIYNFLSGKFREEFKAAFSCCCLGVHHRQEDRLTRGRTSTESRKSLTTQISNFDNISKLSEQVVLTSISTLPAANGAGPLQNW
- Experimental Details: FLIPR intracellular calcium assay, orexin receptor antagonistic activity (OX2)
- Run Conditions: CHO cells expressing human orexin-2 receptor; 3 nM orexin-A; normalized to on-plate reference; *n = geometric mean from n values
Measure: IC50 (nM)

>>> measurement("COc1cccc(OC)c1C1SCC(=O)N1Cc1ccc(Oc2cccc(C)n2)cc1 (stereo not drawn) [Example 283]")
51

(1) COc1cccc(OCCO)c1C1SCC(=O)N1Cc1ccc(OC(F)(F)F)cc1 (stereo not drawn) [Example 267]
(2) CCOc1ccc(CN2C(=O)CSC2c2c(OC)ccc3nc(C)oc23)cc1 (stereo not drawn) [Example 20]
(3) COc1cccc(OC)c1C1SCC(=O)N1Cc1ccc(Oc2ccccn2)cc1 (stereo not drawn) [Example 277]
(4) COc1ccc(CN2C(=O)CSC2c2c(OC)cccc2OC)cc1 (stereo not drawn) [Example 1]
(5) CCOc1ccc(CN2C(=O)CSC2c2c(OC)ccc3c2OCCO3)cc1 (stereo not drawn) [Example 9]
Please give the order of these molecules when sorted by IC50, largest value leading. Please respond with the labels ordered as the question requires. 2, 4, 5, 1, 3
(2: 342 nM, 4: 104 nM, 5: 39 nM, 1: 24 nM, 3: 8 nM)

(a) COc1cccc(OC)c1C1SCC(=O)N1Cc1ccc(Oc2cnccn2)cc1 (stereo not drawn) [Example 279]
(b) COc1cccc(OC)c1C1SCC(=O)N1Cc1ccc2ccccc2n1 (stereo not drawn) [Example 27]
(c) COc1cccc(OC)c1C1SCC(=O)N1Cc1ccc(Oc2cc(C)ccn2)cc1 (stereo not drawn) [Example 284]
(d) COc1ccc2c(c1C1SCC(=O)N1Cc1ccc(OC(F)(F)F)cc1)OCO2 (stereo not drawn) [Example 12]
(e) CCOc1ccccc1C1SCCC(=O)N1Cc1ccccc1OC(F)F (stereo not drawn) [Example 40]
Please give the order of these molecules when sorted by IC50, largest value leading. Please respond with the labels ordered as the question requires. e, a, b, d, c
(e: 68 nM, a: 32 nM, b: 18 nM, d: 11 nM, c: 7 nM)

(P) CCOc1cccc(OC)c1C1SCC(=O)N1Cc1ccc(OC(F)(F)F)cc1 (stereo not drawn) [Example 16]
(Q) COc1cccc(OC)c1C1SCC(=O)N1Cc1ccc(OC(C)C)cc1 (stereo not drawn) [Example 5]
Pick one, P or Q : lowest reported IC50. Select an item and report its label. Q

(I) COc1cccc(OC)c1C1SCC(=O)N1Cc1ccc(Oc2cccnc2)cc1 (stereo not drawn) [Example 278]
(II) COc1cc(F)cc(OC)c1C1SC(C)C(=O)N1Cc1ccc(OC(F)(F)F)cc1 (stereo not drawn) [Example 36]
Exercise: compare I and II ; which one has the greater IC50? Select an item and report its label. II
(II: 33 nM, I: 10 nM)

(A) CCOc1ccccc1C1SCC(=O)N1Cc1cccc(OC(F)(F)F)c1 (stereo not drawn) [Example 81]
(B) COc1cccc(OC)c1C1N(Cc2ccc(OC(F)(F)F)cc2)C(=O)CS1(=O)=O (stereo not drawn) [Example 288]
Pick one, A or B : lowest reported IC50. Select an item and report its label. B
(B: 6 nM, A: 13 nM)

====

- Assay System: human orexin-1 receptor (Homo sapiens, UniProt O43613)
- Experimental Details: FLIPR intracellular calcium assay, orexin receptor antagonistic activity (OX1)
- Run Conditions: CHO cells expressing human orexin-1 receptor; 3 nM orexin-A; normalized to on-plate reference; *n = geometric mean from n values
pIC50: −log10 of the molar value.
Measure: pIC50

>>> measurement("COc1ccnc(OC)c1C1SCC(=O)N1Cc1ccc(OC(F)(F)F)cc1 (stereo not drawn)")
6.25

(A) COc1cc(C)cc(OC)c1C1SCC(=O)N1Cc1ccc(OC(F)(F)F)cc1 (stereo not drawn)
(B) COc1cccc(OCCO)c1C1SCC(=O)N1Cc1ccc(OC(F)(F)F)cc1 (stereo not drawn)
Exercise: compare A and B ; which one has the greater pIC50? Select an item and report its label. A
(A: 6.97, B: 6.58)

Each recorded value in this set is attributed to patent US20120088759A1.
